# system: CyclinE1/CDK2 (Homo sapiens)
# Construct: purchased Eurofins, discovery 14-475
# assay_text: Fluorescence Polarization (FP) competitive binding assay, Cyclin E1/Cdk2;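 further: readings taken after two-hour equilibration at room temperature in HEPES buffer with NaCl, DTT, NP-40 and BSA, IC50 fitted from eight-concentration serial dilution series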
# condition_label: 10 nM Cyclin E1/Cdk2, 2 nM FAM probe; average of 2-3 independent experiments; read-out: Cyclin E FP IC50
pIC50: −log10 of the molar value. *1 amine or outer side, *2 acyl side, *3 side chain or, on linkers, in order; H or OH if unused. Where a SMILES comes first, the peptide text is derived from it. Bridges are numbered along the chain shown (N, C = ends). [ ]: non-standard residue; d: D form. The star is where a group is joined. X18 = CC(=O)N1CCC(=Cc2ccc(Cl)cc2C[C@@H](C(=O)[*:2])N(C)[*:1])CC1; NMehhhLys(Me) = CN([C@@H](CCCCCCCN(C)[*:3])C(=O)[*:2])[*:1]; cBuCO(3,3-F2-1-CF3) = O=C(C1(C(F)(F)F)CC(F)(F)C1)*; Pro(trans-4-F) = O=C(O)[C@@H]1C[C@@H](F)CN1; Gly(cPr) = N[C@H](C(=O)O)C1CC1
measured_endpoint: pIC50

| compound | system | quantitative_result |
| --- | --- | --- |
| CC(=O)N1CCC(=Cc2ccc(Cl)cc2C[C@H]2C(=O)N(C)CCCCCCC[C@H](N(C)C(=O)[C@@H](NC(=O)[C@@H]3C[C@@H](F)CN3C(=O)C3(C(F)(F)F)CC(F)(F)C3)C3CC3)C(=O)N[C@@H](CC(C)C)C(=O)N2C)CC1 [Example 289] ({cBuCO(3,3-F2-1-CF3)}-[Pro(trans-4-F)][Gly(cPr)][NMehhhLys(Me)]L[X18]; lactam 3-C) | CyclinE1/CDK2 (Homo sapiens) | 6.49 |
| CC(C)C[C@@H]1NC(=O)[C@@H](N(C)C(=O)[C@@H](NC(=O)[C@@H]2C[C@@H](F)CN2C(=O)C2(C(F)(F)F)CC(F)(F)C2)C2CC2)CCCCCCN(C)C(=O)[C@H](Cc2cc(Cl)ccc2-c2cnn(C3CC3)c2)N(C)C1=O [Example 73] | CyclinE1/CDK2 (Homo sapiens) | 6.03 |
| CC(C)C[C@@H]1NC(=O)[C@@H](N(C)C(=O)[C@@H](NC(=O)[C@@H]2C[C@@H](F)CN2C(=O)C2(C(F)(F)F)CCC2)C2CC2)CC=CCCCCN(C)C(=O)[C@H](Cc2cc(F)ccc2-c2cncnc2)N(C)C1=O [Example 41] | CyclinE1/CDK2 (Homo sapiens) | 6.09 |
| CC(C)C[C@@H]1NC(=O)[C@@H](N(C)C(=O)[C@@H](NC(=O)[C@@H]2C[C@@H](F)CN2C(=O)C2(C(F)(F)F)CCC2)C2CC2)CC=CCCCCNC(=O)[C@H](Cc2cc(Cl)ccc2Oc2ncccn2)N(C)C1=O (single isomer, unassigned) [Example 156-P1] | CyclinE1/CDK2 (Homo sapiens) | 6.08 |
